# Assay target: T1, human EphB4 ephrin-binding domain, EphB4 (17-196) (human, UniProt P54760 17-196)
# T1 sequence: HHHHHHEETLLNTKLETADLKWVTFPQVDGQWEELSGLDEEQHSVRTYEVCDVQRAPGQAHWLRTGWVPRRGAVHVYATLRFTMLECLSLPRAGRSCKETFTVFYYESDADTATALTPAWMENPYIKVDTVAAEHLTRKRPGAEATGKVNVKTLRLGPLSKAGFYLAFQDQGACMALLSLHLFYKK
# Method description: ITC at 25 °C, peptide injected into human EphB4 (17-196)
Readout: TΔS (kJ/mol)

1. NYLFSPNGPIARAW [NYLF-RAW peptide (NYLFSPNGPIARAW)]	-23.8
2. TNYLFSPNGPIARAW (Synthetic 15-mer (Biopeptide, Inc.); Peptide positions are printed as P1 to P15; also called antagonistic peptide) [TNYL-RAW peptide (TNYLFSPNGPIARAW)]	-20.5
3. LFSPNGPIARAW (TNYL-RAW without Thr-P1, Asn-P2 and Tyr-P3) [LFSP-RAW peptide (LFSPNGPIARAW)]	8.79
4. YLFSPNGPIARAW [YLFS-RAW peptide (YLFSPNGPIARAW)]	-17.2
